tested on: HCV RNA replication of genotype 1b (Huh7/Rep-Feo1b); experiment: HCV 1b replicon luciferase reporter assay; assay type: cell-based, Hepatitis C virus genotype 1b; details: Huh7/Rep-Feo1b cells, 100 μM, 42 h
METRIC_NAME: 1b Replicon reporter Inhibition (%)

>>> reported_value("O=C1N/C(=N\\c2nnc(-c3ccc(Cl)cc3)s2)S/C1=C\\c1ccccc1Cl [Compound 22]")
"n.i."
>>> reported_value("O=C(CCl)Nc1nnc(-c2ccc(F)cc2)s1 [Compound 5]")
"near complete inhibition"
>>> reported_value("O=C1N/C(=N\\c2nnc(-c3ccc(F)cc3)s2)S/C1=C\\c1c(Cl)cccc1Cl [Compound 15]")
"near complete inhibition"
>>> reported_value("COc1cccc(OC)c1/C=C1\\S/C(=N/c2nnc(-c3ccc(Cl)cc3)s2)NC1=O [Compound 25]")
"near complete inhibition"
>>> reported_value("O=C1N/C(=N\\c2nnc(-c3ccc(F)cc3)s2)S/C1=C\\c1c(F)cccc1Cl [Compound 12]")
"near complete inhibition"
>>> reported_value("O=C1N/C(=N\\c2nnc(-c3ccc(Cl)cc3)s2)S/C1=C\\c1c(F)cccc1Cl [Compound 21]")
"n.i."
>>> reported_value("O=C1N/C(=N\\c2nnc(-c3ccc(Cl)cc3)s2)S/C1=C\\c1ccc(Cl)cc1Cl [Compound 23]")
"n.i."
>>> reported_value("O=C(CCl)Nc1nnc(-c2ccc(Cl)cc2)s1 [Compound 6]")
"near complete inhibition"
>>> reported_value("O=C1N/C(=N\\c2nnc(-c3ccc(Cl)cc3)s2)S/C1=C\\c1c(Cl)cccc1Cl [Compound 24]")
"near complete inhibition"
